# protocol description: Cell Viability - LYMP2-016 (AID 984);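 further: cells exposed to compound for 24 hours at 37 °C; on the % scale 0 is the no-effect control and ±100 the full control effect; nearly all actives have a fitted effect of over 55% in size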
# assay conditions: LYMP2-016 lymphoblastoid cell viability, qHTS; series mostly up to 92.2 µM
Records with an inconclusive call do not appear. Calls of active or inactive are those of the source. The call rests on the fitted dose curve; in most records, active means well fitted cell-killing curve with a large enough effect; inconclusive means small, poorly fitted or top-dose-only effect; inactive means flat fitted curve, though single readings scatter.
experimental readout: outcome

Cn1c(=O)c2c(ncn2C)n(C)c1=O: inactive
N[C@@H](Cc1c[nH]c2ccc(O)cc12)C(=O)O: inactive
O=c1[nH]cc(F)c(=O)[nH]1: inactive

----------
# protocol description: Quantitative High-Throughput drug screen in 47 multiple myeloma cell lines against the NCATS MIPE library collection: KMS28PE_JCRB cell viability assay (AID 1918983); further: nearly all actives have a fitted effect of over 35% in size
# assay conditions: KMS28PE multiple myeloma viability, CellTiter-Glo ATP, 48 h; series mostly up to 45.8 µM
Records with an inconclusive call do not appear. Activity calls are given as the source filed them. The call rests on the fitted dose curve; in most records, active means well fitted cell-killing curve with a large enough effect; inconclusive means small, poorly fitted or top-dose-only effect, or effect the other way; inactive means no such curve, though single readings can be large or run the other way.
Select the correct class. Options are active, inactive and nothing else.

Example entries and their recorded answers appear below.
CC1(C)O[C@H]2CC(=O)OC[C@]23[C@H]2CC[C@@]4(C)[C@H](c5ccoc5)OC(=O)[C@H]5O[C@]54[C@]2(C)C(=O)C[C@@H]13: inactive
CC12CC3CC(C)(C1)CC(N)(C3)C2: inactive
Fc1ccc([C@@H]2CCNC[C@H]2COc2ccc3c(c2)OCO3)cc1: active

In: Kindly provide the recorded test outcome for the following compound: `CC#C[C@]1(O)CC[C@H]2[C@@H]3CCC4=CC(=O)CCC4=C3[C@@H](c3ccc(N(C)C)cc3)C[C@@]21C`
Out: active

In: Kindly provide the recorded test outcome for the following compound: `Cc1cc(C(C)(C)C)c(O)c(C)c1CC1=NCCN1`
Out: inactive

In: Kindly provide the recorded test outcome for the following compound: CN1C2CCC1CC(OC(=O)C(CO)c1ccccc1)C2 (stereo not given)
Out: inactive

In: Kindly provide the recorded test outcome for the following compound: `NCCc1cnc[nH]1`
Out: inactive

----------
Assign max response to each entry below.
# protocol description: qHTS assay for small molecule antagonists of peroxisome proliferator-activated receptor delta signaling (AID 588535);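 further: cells co-treated with a PPAR-delta agonist as stimulator during compound exposure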
# assay conditions: HEK293T PPARd-UAS-bla, beta-lactamase FRET ratio, 18 h; 460 nm channel
Results filed as inconclusive are left out.
Answers are plain numbers, in %.

These recorded examples may help you get a feel for the data.
CC(C)(Oc1ccc(C2CC2(Cl)Cl)cc1)C(=O)O (stereo not given): -19.7
Cc1cn([C@H]2C[C@H](N=[N+]=[N-])[C@@H](CO)O2)c(=O)[nH]c1=O: 16

Go through the items and report each one's max response.
1. Clc1ccc(C(c2ccccc2Cl)C(Cl)Cl)cc1 (stereo not given)
2. Cn1cnc2c1c(=O)[nH]c(=O)n2C
3. N[C@@H](Cc1c[nH]c2ccc(O)cc12)C(=O)O

Out:
1. -16.9
2. -1.33
3. 3.83

----------
# target: Cytochrome P450 3A4 (Homo sapiens)
# protocol description: qHTS Assay for Inhibitors and Substrates of Cytochrome P450 3A4 (AID 884); further: on the % scale 0 is the no-effect control and ±100 the full control effect; nearly all actives have a fitted effect of over 50% in size
# assay conditions: recombinant CYP3A4, Luciferin-PPXE luminescence; series mostly up to 57.1 µM
Records with an inconclusive call do not appear. Active and inactive are the calls of the source. The call rests on the fitted dose curve; in most records, active means well fitted inhibition curve with a large enough effect; inconclusive means small, poorly fitted or top-dose-only effect; inactive means no such curve, though single readings can be large or run the other way.
experimental readout: outcome

These recorded examples may help you get a feel for the data.
CC(C)Cc1ccc(C(C)C(=O)O)cc1 (stereo not drawn): inactive
CN(C)CCC=C1c2ccccc2C=Cc2ccccc21: inactive
CCC1(C)CC(=O)NC1=O (stereo not drawn): inactive
Nc1ccn([C@H]2CC[C@@H](CO)O2)c(=O)n1: inactive

Go through the items and report each one's outcome.
1. CCN1CCCC1CNC(=O)c1cc(S(=O)(=O)CC)c(N)cc1OC (stereo not drawn)
2. COc1cc2nc(N(C)CCCNC(=O)C3CCCO3)nc(N)c2cc1OC (stereo not drawn)
3. NCCCCCC(=O)O

Out:
1: inactive; 2: inactive; 3: inactive

----------
# target: Papain (Carica papaya) (UniProt P00784)
# Sequence (P00784 whole entry, looked up): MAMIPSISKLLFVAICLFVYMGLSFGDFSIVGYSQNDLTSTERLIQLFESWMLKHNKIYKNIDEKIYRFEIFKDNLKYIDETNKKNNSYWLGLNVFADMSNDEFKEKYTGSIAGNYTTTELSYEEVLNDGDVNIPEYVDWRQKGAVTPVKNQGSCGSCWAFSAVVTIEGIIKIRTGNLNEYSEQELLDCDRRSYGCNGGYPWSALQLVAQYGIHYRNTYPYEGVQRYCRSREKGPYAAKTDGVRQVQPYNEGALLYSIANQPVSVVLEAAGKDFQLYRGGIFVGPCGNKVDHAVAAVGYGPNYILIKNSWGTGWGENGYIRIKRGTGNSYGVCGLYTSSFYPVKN
# protocol description: Primary qHTS assay for inhibitors of the protease papain (AID 1645873);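 further: papain turnover of Z-FR-AMC read as the AMC fluorescence gain over 10 min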
# assay conditions: papain Z-FR-AMC cleavage, AMC fluorescence; series mostly up to 49.8 µM
Results filed as inconclusive are left out. Calls of active or inactive are those of the source. Calls follow the shape of the dose curve; as a rule, active = well fitted inhibition curve with a large enough effect; inconclusive = small, poorly fitted or top-dose-only effect; inactive = no such curve, though single readings can be large or run the other way.
Select the correct class. Options are active, inactive and nothing else.

N[C@@H](Cc1c[nH]c2ccc(O)cc12)C(=O)O: inactive
Cc1ccc(C(=O)Nc2ccc(S(=O)(=O)O)c3cc(S(=O)(=O)O)cc(S(=O)(=O)O)c23)cc1NC(=O)c1cccc(NC(=O)Nc2cccc(C(=O)Nc3cc(C(=O)Nc4ccc(S(=O)(=O)O)c5cc(S(=O)(=O)O)cc(S(=O)(=O)O)c45)ccc3C)c2)c1: active
O=C1c2c(O)ccc(O)c2C(=O)c2c(NCCNCCO)ccc(NCCNCCO)c21: inactive
Cn1c(=O)c2[nH]cnc2n(C)c1=O: inactive
NC(=O)OCC(COC(N)=O)c1ccccc1: inactive
Clc1ccc2c(c1)C(N1CCNCC1)=Nc1ccccc1O2: inactive

In: Kindly provide the recorded test outcome for the following compound: `Cc1cn([C@H]2C=C[C@@H](CO)O2)c(=O)[nH]c1=O`
Out: inactive

In: Kindly provide the recorded test outcome for the following compound: CC(C)Cc1ccc(C(C)C(=O)O)cc1 (stereo not given)
Out: inactive

In: Kindly provide the recorded test outcome for the following compound: `O=c1[nH]cc(F)c(=O)[nH]1`
Out: inactive

In: Kindly provide the recorded test outcome for the following compound: O=C(C1CCCCC1)N1CC(=O)N2CCc3ccccc3C2C1 (stereo not given)
Out: inactive

----------
# protocol description: Cell Viability - LYMP2-025 (AID 976);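 further: cells exposed to compound for 24 h at 37 °C; plate controls were DMSO only for no effect and tetraoctylammonium bromide control for full effect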
# assay conditions: LYMP2-025 lymphoblastoid cell viability; series mostly up to 92.2 µM
Results filed as inconclusive are left out. The source made the active and inactive calls. Calls come from the whole dose curve; as a rule, active = well fitted cell-killing curve with a large enough effect; inconclusive = small, poorly fitted or top-dose-only effect; inactive = flat fitted curve, though single readings scatter.
experimental readout: outcome

These recorded examples may help you get a feel for the data.
COc1ccc2c(c1)c(CC(=O)O)c(C)n2C(=O)c1ccc(Cl)cc1: inactive
NS(=O)(=O)c1cc2c(cc1Cl)NCNS2(=O)=O: inactive
N[C@@H](Cc1c[nH]c2ccc(O)cc12)C(=O)O: inactive
O=c1c(-c2ccc(O)cc2)coc2cc(O)cc(O)c12: inactive

Go through the items and report each one's outcome.
1. COc1cc2c(c(OC)c1OC)-c1ccc(OC)c(=O)cc1[C@@H](NC(C)=O)CC2
2. Cn1c(=O)c2c(ncn2C)n(C)c1=O
3. NCCS(=O)(=O)O

Out:
1: inactive; 2: inactive; 3: inactive

Go through the items and report each one's outcome.
1. O=c1[nH]cc(F)c(=O)[nH]1
2. Nc1ccn([C@H]2CC[C@@H](CO)O2)c(=O)n1

Out:
1. inactive
2. inactive

----------
# protocol description: qHTS for differential inhibitors of proliferation of Plasmodium falciparum line HB3 (AID 1886);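 further: parasites grown with compound for 72 h before SYBR Green readout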
# assay conditions: Plasmodium falciparum HB3 proliferation inhibition; series mostly up to 28.7 µM
Records with an inconclusive call do not appear. The source made the active and inactive calls. Calls come from the whole dose curve; as a rule, active = well fitted curve in the direction sought with a large enough effect; inconclusive = small, poorly fitted or top-dose-only effect, or another doubt; inactive = no such curve, though single readings can be large or run the other way.
Select the correct class. Options are y = active, n = inactive and nothing else.

Example entries and their recorded answers appear below.
N[C@@H](Cc1c[nH]c2ccc(O)cc12)C(=O)O: n
NC12CC3CC(CC(C3)C1)C2: n
CCOC(=O)C(C)(C)Oc1ccc(Cl)cc1: n
CN1CCN2c3ccccc3Cc3ccccc3C2C1 (configuration not stated): y
Clc1ccc2c(c1)C(N1CCNCC1)=Nc1ccccc1O2: y

In: Kindly provide the recorded test outcome for the following compound: `CN(C)c1nc(N(C)C)nc(N(C)C)n1`
Out: n

In: Kindly provide the recorded test outcome for the following compound: `COc1cc2nc(N3CCN(C(=O)c4ccco4)CC3)nc(N)c2cc1OC`
Out: y

In: Kindly provide the recorded test outcome for the following compound: `NCCS(=O)(=O)O`
Out: n

In: Kindly provide the recorded test outcome for the following compound: COc1ccc(C2CNC(=O)C2)cc1OC1CCCC1 (configuration not stated)
Out: n

In: Kindly provide the recorded test outcome for the following compound: `O=c1c(-c2ccc(O)cc2)coc2cc(O)cc(O)c12`
Out: n

In: Kindly provide the recorded test outcome for the following compound: `O=C1N(c2ccccc2)c2ccccc2C1(Cc1ccncc1)Cc1ccncc1`
Out: y

In: Kindly provide the recorded test outcome for the following compound: `COc1ccc2c(c1)c(CC(=O)O)c(C)n2C(=O)c1ccc(Cl)cc1`
Out: n

In: Kindly provide the recorded test outcome for the following compound: CCC1(C)CC(=O)NC1=O (configuration not stated)
Out: n

In: Kindly provide the recorded test outcome for the following compound: `Cn1cnc2c1c(=O)[nH]c(=O)n2C`
Out: n

In: Kindly provide the recorded test outcome for the following compound: `NC(=O)NO`
Out: n

In: Kindly provide the recorded test outcome for the following compound: `CCCCc1oc2ccccc2c1C(=O)c1cc(I)c(OCCN(CC)CC)c(I)c1`
Out: y

In: Kindly provide the recorded test outcome for the following compound: COc1ccccc1N1CCN(CC(O)COc2cccc3ccccc23)CC1 (configuration not stated)
Out: y

In: Kindly provide the recorded test outcome for the following compound: CN1C2CCC1CC(OC(=O)C(CO)c1ccccc1)C2 (configuration not stated)
Out: n

In: Kindly provide the recorded test outcome for the following compound: Clc1ccc(C(c2ccccc2Cl)C(Cl)Cl)cc1 (configuration not stated)
Out: n

In: Kindly provide the recorded test outcome for the following compound: `COc1nc(C)nc(Cl)c1NC1=NCCN1`
Out: n

In: Kindly provide the recorded test outcome for the following compound: `NCCCCCC(=O)O`
Out: n
